Data origin: patent US20040067915A1

- STUDY TARGET: angiotensin II receptor (rabbit aortic rings) (Oryctolagus cuniculus)
- Construct: The thoracic aorta was removed, cleaned of adherent fat and connective tissue and then cut into 3-mm ring segments; from tissue; host or cells: rabbit thoracic aorta rings, endothelium removed
- Sequence (P34976 1-359): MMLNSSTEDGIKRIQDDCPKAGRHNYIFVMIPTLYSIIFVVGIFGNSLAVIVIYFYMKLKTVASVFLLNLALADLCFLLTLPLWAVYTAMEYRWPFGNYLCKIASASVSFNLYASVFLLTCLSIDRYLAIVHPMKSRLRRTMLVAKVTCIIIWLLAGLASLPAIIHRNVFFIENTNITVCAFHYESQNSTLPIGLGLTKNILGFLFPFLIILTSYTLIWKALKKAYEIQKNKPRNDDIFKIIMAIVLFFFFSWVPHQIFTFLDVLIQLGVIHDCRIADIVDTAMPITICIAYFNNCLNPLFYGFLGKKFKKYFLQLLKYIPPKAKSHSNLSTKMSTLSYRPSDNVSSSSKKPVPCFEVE
- MEASUREMENT PROTOCOL: Assay B: In vitro Vascular Smooth Muscle Response for AII (rabbit aortic rings, pA2)
- Type: cell-based
- CONDITION DESCRIPTION: two determinations given as a/b
Quick rule for you: Kb at 20 nM or higher means Fulfilled, lower means Not fulfilled.

Take a look at these entries with their results.
{"MOLECULE": "CCCCc1nn(CC(OCC(=O)O)c2ccccc2)c(=O)n1Cc1ccc(-c2ccccc2-c2nn[nH]n2)cc1 (stereo not drawn) [Compound 91]", "CLASS": "Not fulfilled"}
{"MOLECULE": "CCCCc1nn(CC(O)c2cc(OC)ccc2OC)c(=O)n1Cc1ccc(-c2ccccc2-c2nn[nH]n2)cc1 (stereo not drawn) [Compound 98]", "CLASS": "Not fulfilled"}
{"MOLECULE": "CCCCc1cn(CCc2ccccc2)c(=O)n1Cc1ccc(-c2ccccc2-c2nnn[nH]2)cc1 [Compound 133]", "CLASS": "Not fulfilled"}
{"MOLECULE": "CCCCc1nn(CC(=O)c2cc(OC)ccc2OC)c(=O)n1Cc1ccc(-c2ccccc2-c2nn[nH]n2)cc1 [Compound 96]", "CLASS": "Not fulfilled"}
{"MOLECULE": "CCCCc1nn(CC(O)c2ccccc2)c(=O)n1Cc1ccc(-c2ccccc2-c2nn[nH]n2)cc1 (stereo not drawn) [Compound 83]", "CLASS": "Not fulfilled"}
{"MOLECULE": "CCCCc1nc2c(CCC)nnc(O)c2n1Cc1ccc(-c2ccccc2-c2nnn[nH]2)cc1 [Compound 113]", "CLASS": "Not fulfilled"}
{"MOLECULE": "CCCCc1nn(CC(=O)O)c(=O)n1Cc1ccc(-c2ccccc2-c2nn[nH]n2)cc1 [Compound 87]", "CLASS": "Not fulfilled"}
{"MOLECULE": "CCCCc1nc(Cc2ccc(-c3ccccc3C(=O)O)cc2)nn1CCCC [Compound 127]", "CLASS": "Fulfilled"}

Answer whether Kb of CCCCc1nc2c(Cl)nnc(Cl)c2n1Cc1ccc(-c2ccccc2-c2nnn[nH]2)cc1 [Compound 110] is greater than or equal to 20 nM.
Fulfilled

Entry to check: CCCCc1nc(C)n(Cc2ccc(-c3ccccc3C(=O)O)cc2)n1 [Compound 77]
Fulfilled

Okay, and CCCCc1nc2c(O)nncc2n1Cc1ccc(-c2ccccc2-c2nnn[nH]2)cc1 [Compound 116] ?
Fulfilled

###

- Test system: pressor response to AII
- MEASUREMENT PROTOCOL: Assay C: In vivo Intragastric Pressor Assay Response for AII Antagonists
- CONDITION DESCRIPTION: dose 3 mg/kg, rat
# Assay C Duration per entry

Look up Assay C Duration for this compound: CCCCc1nc(C(F)(F)CCC)nn1Cc1ccc(-c2ccccc2-c2nnn[nH]2)cc1 [Compound 10]
100 min

Consider next the compound CCCCc1nc2cnncc2n1Cc1ccc(-c2ccccc2-c2nnn[nH]2)cc1 [Compound 115] in the same way.
>240 min

Queued: CCCCc1cn(CC2CCCCC2)c(=O)n1Cc1ccc(-c2ccccc2-c2nnn[nH]2)nc1 [Compound 205]
>180 min

Then CCCCc1nc2c(OC(C)=O)nnc(OC(C)=O)c2n1Cc1ccc(-c2ccccc2-c2nnn[nH]2)cc1 [Compound 125] ?
>240 min

###

- STUDY TARGET: angiotensin II AT1 receptor
- MEASUREMENT PROTOCOL: Assay A: Angiotensin II Binding Activity (125I-AII displacement, rat uterine membrane preparation)
MEASURED PROPERTY: pIC50
Conceptually, pIC50 converts a concentration in mol/L into minus its log10.

{"MOLECULE": "CCCCc1nc(CCCC)n(Cc2ccc(-c3ccccc3-c3nnn[nH]3)cc2)n1", "pIC50": 8.27}
{"MOLECULE": "CCCCc1nc(Cl)n(Cc2ccc(-c3ccccc3C(=O)O)cc2)n1", "pIC50": 4.77}
{"MOLECULE": "CCCc1nc(CCC)n(Cc2ccc(-c3ccccc3-c3nnn[nH]3)cc2)n1", "pIC50": 7.80}

Hi! What's the reported pIC50 for CCCCc1cn(C2C3CC4CC(C3)CC2C4)c(=O)n1Cc1ccc(-c2ccccc2-c2nnn[nH]2)nc1 (stereo not drawn) on angiotensin II AT1 receptor?
7.29

Cool, now "CCCCc1nc(CC(CC)CC)n(Cc2ccc(-c3ccccc3-c3nnn[nH]3)nc2)n1"
7.37

Request: "CCCCc1nc(C(F)(F)CCC)nn1Cc1ccc(-c2ccccc2-c2nnn[nH]2)cc1"
8.31

Also "CCCCc1nc(-c2ccccc2)nn1Cc1ccc(-c2ccccc2-c2nnn[nH]2)cc1" , if possible.
8.15

Please answer likewise for "CCCCc1nc(CCCC)n(Cc2ccc(-c3ccccc3C(=O)NNS(=O)(=O)C(F)(F)F)cc2)n1"
6.70

###

- STUDY TARGET: angiotensin II receptor (rabbit aortic rings) (Oryctolagus cuniculus)
- Construct: The thoracic aorta was removed, cleaned of adherent fat and connective tissue and then cut into 3-mm ring segments; from tissue; host or cells: rabbit thoracic aorta rings, endothelium removed
- MEASUREMENT PROTOCOL: Assay B: In vitro Vascular Smooth Muscle Response for AII (rabbit aortic rings, pA2)
- Assay type: cell-based
- CONDITION DESCRIPTION: two determinations given as a/b
MEASURED PROPERTY: Kb (nM)
Please reply with the bare figure in nM and do not write the unit itself.

{"COMPOUND": "CCCCc1nn(CC(=O)C23CC4CC(CC(C4)C2)C3)c(=O)n1Cc1ccc(-c2ccccc2-c2nn[nH]n2)cc1", "MEASURED PROPERTY": "Kb", "VALUE MEASURED": 7.94}
{"COMPOUND": "CCCCc1cn(CCc2cccs2)c(=O)n1Cc1ccc(-c2ccccc2-c2nnn[nH]2)cc1", "MEASURED PROPERTY": "Kb", "VALUE MEASURED": 0.501}
{"COMPOUND": "CCCCc1nn(Cc2ccc3ccccc3c2)c(=O)n1Cc1ccc(-c2ccccc2-c2nn[nH]n2)cc1", "MEASURED PROPERTY": "Kb", "VALUE MEASURED": 316}
{"COMPOUND": "CCCCc1c(C)n(CCCC)c(=O)n1Cc1ccc(-c2ccccc2-c2nnn[nH]2)cc1", "MEASURED PROPERTY": "Kb", "VALUE MEASURED": 5.01}
{"COMPOUND": "CCCCc1nn(CC(=O)OC(C)(C)C)c(=O)n1Cc1ccc(-c2ccccc2-c2nn[nH]n2)cc1", "MEASURED PROPERTY": "Kb", "VALUE MEASURED": 79.4}
{"COMPOUND": "CCCCc1nn(CCC2CCCCC2)c(=O)n1Cc1ccc(-c2ccccc2-c2nn[nH]n2)cc1", "MEASURED PROPERTY": "Kb", "VALUE MEASURED": 12.6}
{"COMPOUND": "CCCCc1cn(-c2c(C(C)C)cccc2C(C)C)c(=O)n1Cc1ccc(-c2ccccc2-c2nnn[nH]2)cc1", "MEASURED PROPERTY": "Kb", "VALUE MEASURED": 288}
{"COMPOUND": "CCCCc1nc2cnncc2n1Cc1ccc(-c2ccccc2C(=O)O)cc1", "MEASURED PROPERTY": "Kb", "VALUE MEASURED": 5010}

Recorded Kb of "CCCCc1nn(C(C)(C)C(=O)c2ccccc2)c(=O)n1Cc1ccc(-c2ccccc2-c2nn[nH]n2)cc1" , please.
20

Same lookup for "CCCCc1nc2c(O)nnc(O)c2n1Cc1ccc(-c2ccccc2C(=O)O)cc1" , please.
50.1

Please give the result for "CCCCc1nc(Cl)c(Cl)n1Cc1ccc(-n2cccc2C(=O)O)cc1" too.
2510

Please answer likewise for "CCCCc1cn(-c2c(C)cccc2C)c(=O)n1Cc1ccc(-c2ccccc2-c2nnn[nH]2)cc1"
0.851

Entry "CCCCc1nn(CCCCC(=O)O)c(=O)n1Cc1ccc(-c2ccccc2-c2nn[nH]n2)cc1" please
10

And then "CCCCc1nc(Cc2ccc(-c3ccccc3-c3nnn[nH]3)cc2)nn1CCCC" , what is it?
5010

Follow-up entry: CCCCc1nn(CC(OCc2ccccc2)c2ccccc2)c(=O)n1Cc1ccc(-c2ccccc2-c2nn[nH]n2)cc1 (stereo not shown)
20

Next compound up: "CCCc1cn(CCC)c(=O)n1Cc1ccc(-c2ccccc2-c2nnn[nH]2)cc1"
6.31
